Assay: Ratio of IC50 of compound to IC50 of doxorubicin for cytotoxicity against human NHA cells assessed as reduction in cell viability incubated for 72 hrs by AlamarBlue cell viability assay
Assay type: cell-based
Conditions: read-out: Ratio IC50
Peptide text beside a SMILES is read from it. * marks the point of attachment. Glutaryl(5-(14-O-Dox)) = COc1cccc2c1C(=O)c1c(O)c3c(c(O)c1C2=O)C[C@@](O)(C(=O)COC(=O)CCCC(=O)*)C[C@@H]3O[C@H]1C[C@H](N)[C@H](O)[C@H](C)O1
PARAMETER: selectivity ratio at 72 h

COMPOUND	PARAMETER	OBSERVED_MEASUREMENT
COc1cccc2c1C(=O)c1c(O)c3c(c(O)c1C2=O)C[C@@](O)(C(=O)COC(=O)CCCC(=O)N[C@@H](Cc1ccccc1)C(=O)N[C@@H](CO)C(=O)N[C@@H](CCCNC(=N)N)C(=O)N1CCC[C@H]1C(=O)N[C@@H](C)C(=O)N[C@@H](Cc1ccccc1)C(=O)N[C@@H](CC(C)C)C(=O)O)C[C@@H]3O[C@H]1C[C@H](N)[C@H](O)[C@H](C)O1 ({Glutaryl(5-(14-O-Dox))}-FSRPAFL-OH)	selectivity ratio at 72 h	> 7.4
